Tested on: lacZ under control of the tetA promoter (PtetA) in E. coli KM3
Assay type: cell-based
reported-conditions: Table 10; 48 hours at 30° C.
Answer each item with its documented relative β-galactosidase activity, No inducer.
Numbers only.

Before answering, review these 3 worked examples.
L1-22: SU-responsive TetR(B) variant, library L1 hit, SEQ ID NO: 7 (protein, Sulfornylurea responsive repressor L1-22) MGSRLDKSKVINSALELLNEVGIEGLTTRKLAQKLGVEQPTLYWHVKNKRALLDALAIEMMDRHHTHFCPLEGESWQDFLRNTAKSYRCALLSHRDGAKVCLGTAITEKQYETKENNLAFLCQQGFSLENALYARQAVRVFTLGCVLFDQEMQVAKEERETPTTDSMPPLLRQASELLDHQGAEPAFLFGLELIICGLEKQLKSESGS ... 0.2
L1-9: SU-responsive TetR(B) variant, library L1 hit (protein, Sulfonylurea responsive repressor L1-09) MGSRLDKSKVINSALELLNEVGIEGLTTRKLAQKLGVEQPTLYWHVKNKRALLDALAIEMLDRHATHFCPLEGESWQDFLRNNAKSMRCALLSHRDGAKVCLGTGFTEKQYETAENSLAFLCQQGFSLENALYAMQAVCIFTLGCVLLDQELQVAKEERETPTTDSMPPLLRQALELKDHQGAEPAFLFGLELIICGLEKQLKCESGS ... 0.9
L1-29: SU-responsive TetR(B) variant, library L1 hit, SEQ ID NO: 10 (protein, Sulfonylurea responsive repressor L1-29) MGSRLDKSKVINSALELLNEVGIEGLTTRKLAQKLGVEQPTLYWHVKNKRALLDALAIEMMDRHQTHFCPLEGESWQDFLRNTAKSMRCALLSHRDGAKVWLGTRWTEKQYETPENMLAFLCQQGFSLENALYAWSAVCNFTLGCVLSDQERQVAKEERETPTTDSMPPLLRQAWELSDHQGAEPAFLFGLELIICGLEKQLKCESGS ... 0.1

Attention now turns to another entry.
What value of measured relative β-galactosidase activity, No inducer is listed for L1-44: SU-responsive TetR(B) variant, library L1 hit, SEQ ID NO: 13 (protein, Sulfonylurea responsive repressor L1-44) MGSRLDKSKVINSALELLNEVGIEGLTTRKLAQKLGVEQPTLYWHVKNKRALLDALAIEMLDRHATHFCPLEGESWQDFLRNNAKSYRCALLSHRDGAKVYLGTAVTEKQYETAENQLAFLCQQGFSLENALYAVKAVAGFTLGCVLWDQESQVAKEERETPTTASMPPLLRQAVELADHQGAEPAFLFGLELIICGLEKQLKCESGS ?
0.6
